target.entity: K-Ras G12S (Homo sapiens, UniProt P01116, G12S)
Sequence (P01116 1-188 isoform P01116-2 G12S): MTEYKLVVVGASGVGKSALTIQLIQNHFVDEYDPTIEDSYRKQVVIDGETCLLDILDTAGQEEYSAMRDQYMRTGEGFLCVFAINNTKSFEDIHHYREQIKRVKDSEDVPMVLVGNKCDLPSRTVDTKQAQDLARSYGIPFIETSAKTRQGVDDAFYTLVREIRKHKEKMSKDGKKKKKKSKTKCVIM
method.description: HTRF resonance energy transfer assay, K-Ras G12S / SOS1 interaction
study.conditions: HTRF assay of Example 5; read-out: IC50 against K-Ras G12S
From the text: This assay can be also used to assess a selective inhibition or reduction of signaling output of a mutant Ras protein relative to a wildtype, or relative to a different mutant Ras protein. For example, the equilibrium interaction of wildtype Kras or K-Ras mutant (e.g., wildtype or a mutant thereof) with SOS1 (e.g., hSOS1) can be assessed as a proxy or an indication for a subject compound's ability to bind and inhibit Ras protein. […]
pIC50: −log10 of the molar value.

molecule	pIC50
N#Cc1c(N)sc2c(F)ccc(-c3c(Cl)c4c5c(nc(OC[C@@]67CCCN6C[C@H](F)C7)nc5c3F)N(C3CCCOC3)CCO4)c12 (some centres unmarked)	> 7.00
N#Cc1c(N)sc2c(F)ccc(-c3c(Cl)c4c5c(nc(OC[C@@]67CCCN6C[C@H](F)C7)nc5c3F)N(CC(F)F)[C@@H](C(O)C(F)(F)F)CO4)c12 (some centres unmarked)	> 7.00
N#Cc1c(N)sc2c(F)ccc(-c3c(Cl)c4c5c(nc(OC[C@@]67CCCN6C[C@H](F)C7)nc5c3F)N(C3COCC3O)CCO4)c12 (some centres unmarked)	> 7.00
CC1Oc2c(Cl)c(-c3ccc(F)c4sc(N)c(C#N)c34)c(F)c3nc(OC[C@@]45CCCN4C[C@H](F)C5)nc(c23)N(CC(F)F)C1CC#N (some centres unmarked)	> 7.00
N#Cc1c(N)sc2c(F)ccc(-c3c(Cl)c4c5c(nc(OC[C@@]67CCCN6C[C@H](F)C7)nc5c3F)N(CC3(N)CCC3)CCCO4)c12	> 7.00
CC1(C)CCC(N2CCOc3c(Cl)c(-c4ccc(F)c5sc(N)c(C#N)c45)c(F)c4nc(OC[C@@]56CCCN5C[C@H](F)C6)nc2c34)CO1 (some centres unmarked)	> 7.00
CNC(=O)C1CCCC(N2CCOc3c(Cl)c(-c4ccc(F)c5sc(N)c(C#N)c45)c(F)c4nc(OC[C@@]56CCCN5C[C@H](F)C6)nc2c34)C1 (some centres unmarked)	> 7.00
N#Cc1c(N)sc2c(F)ccc(-c3c(Cl)c4c5c(nc(OC[C@@]67CCCN6C[C@H](F)C7)nc5c3F)N(CC3CC3C#N)[C@@H](C3(O)CC3)CO4)c12 (single isomer, unassigned) [Compound 821]	> 7.00
N#Cc1c(N)sc2c(F)ccc(-c3c(Cl)c4c5c(nc(OC[C@@]67CCCN6C[C@H](F)C7)nc5c3F)N(C3CCCNCC3)CCO4)c12 (some centres unmarked)	> 7.00
N#Cc1c(N)sc2c(F)ccc(-c3c(Cl)c4c5c(nc(OC[C@@]67CCCN6C[C@H](F)C7)nc5c3F)N(CC(F)F)C(c3cnco3)CO4)c12 (single isomer, unassigned)	> 7.00
N#Cc1c(N)sc2c(F)ccc(-c3c(Cl)c4c5c(nc(OC[C@@]67CCCN6C[C@H](F)C7)nc5c3F)N(C35COC(CF)(C3)C5)CCO4)c12	> 7.00
